Test system: BT-20
Experiment: relative cell number vs DMSO control (72 h) (% of DMSO); higher = less growth inhibition (more cells)
Conditions: sgRNA knockout: sgNT, 100 nM
Please enter class 1 where relative cell number is greater than or equal to 80, and class 0 where it is lower.

| Compound | Label |
| --- | --- |
| CC1(C)CCC(c2ccc(Cl)cc2)=C(CN2CCN(c3ccc(C(=O)NS(=O)(=O)c4ccc(N[C@H](CCN5CCOCC5)CSc5ccccc5)c(S(=O)(=O)C(F)(F)F)c4)cc3)CC2)C1 [Navitoclax] | class 1 |
| CCc1c2c(nc3ccc(O)cc13)-c1cc3c(c(=O)n1C2)COC(=O)[C@]3(O)CC [SN38] | class 0 |
| Cc1cnc(-c2cnc(NCCNc3ccc(C#N)cn3)nc2-c2ccc(Cl)cc2Cl)[nH]1 | class 1 |
| CCCc1nn(C)c2c(=O)[nH]c(-c3cc(S(=O)(=O)N4CCN(C)CC4)ccc3OCC)nc12 [Sildenafil] | class 1 |

* * *

Test system: SKBR3
Experiment: relative cell number vs DMSO control (72 h) (% of DMSO); higher = less growth inhibition (more cells)
Conditions: sgRNA knockout: sgNT, 100 nM
# binarize relative cell number: threshold 70 inclusive, high side 1, low side 0

| Compound smiles | Label |
| --- | --- |
| COc1cc2nccc(Oc3ccc(NC(=O)Nc4cc(C)on4)c(Cl)c3)c2cc1OC | 1 |
| CC(C)C[C@H](NC(=O)[C@H](Cc1ccccc1)NC(=O)c1cnccn1)B(O)O | 0 |
| Cc1cnc(-c2cnc(NCCNc3ccc(C#N)cn3)nc2-c2ccc(Cl)cc2Cl)[nH]1 | 1 |
| CC(C)CC(=O)Nc1n[nH]c2c1CN(C(=O)C1CCN(C)CC1)C2(C)C | 0 |
| COc1nc(N)nc2c1ncn2[C@@H]1O[C@H](CO)[C@@H](O)[C@@H]1O | 1 |
| CC(=O)Nc1nc(C)c(-c2ccc(Cl)c(S(=O)(=O)NCCO)c2)s1 | 0 |
| C=C1C[C@@H]2[C@H](CC[C@]3(C)C(=O)CC[C@@H]23)[C@@]2(C)C=CC(=O)C=C12 | 1 |
| C[C@H]1CCC/C=C/[C@@H]2C[C@H](O)C[C@H]2[C@H](O)/C=C/C(=O)O1 | 0 |

* * *

The following compounds are shown together with reported relative cell number values.
Test system: BT-20
Assay: relative cell number vs DMSO control (72 h) (% of DMSO); higher = less growth inhibition (more cells)
Conditions: sgRNA knockout: sgNT, 1000 nM

| Compound | relative cell number |
| --- | --- |
| Cc1[nH]c(/C=C2\C(=O)Nc3ccc(S(=O)(=O)N(C)c4cccc(Cl)c4)cc32)c(C)c1C(=O)N1CCN(C)CC1 | 74.8 |
| COc1cc2c(cc1-c1c(C)noc1C)ncc1[nH]c(=O)n([C@H](C)c3ccccn3)c12 [IBET151] | 72.5 |
| O=c1[nH]cc(F)c(=O)[nH]1 [5-Fluorouracil] | 78.4 |
| O=C1CCC(N2C(=O)c3ccccc3C2=O)C(=O)N1 (stereo unspecified) [Thalidomide] | 114 |
| O=C(c1ccc(/C=C/c2n[nH]c3ccccc23)cc1)N1CCNCC1 [KW2449] | 113 |
| O=C(NOCC(O)CO)c1cc(Br)c(F)c(F)c1Nc1ccc(I)cc1F (stereo unspecified) | 94.1 |
| C[C@@]1(C(=O)Nc2ccc(F)nc2)CCCN1c1nc(Nc2cc(C3CC3)n[nH]2)c2cccn2n1 | 90 |
| C[C@@H]1CN(CC(=O)Nc2ccc3c(c2)Cc2cccc(-c4cc(=O)cc(N5CCOCC5)o4)c2S3)C[C@H](C)O1 | 108 |
| CCC[C@H](NC(=O)/C(C#N)=C/c1cccc(Br)n1)c1ccccc1 [WP1130] | 100 |
| CS(=O)(=O)CCNCc1ccc(-c2ccc3ncnc(Nc4ccc(OCc5cccc(F)c5)c(Cl)c4)c3c2)o1 [Lapatinib] | 78.7 |
| CN(C)C/C=C/C(=O)Nc1cc2c(Nc3ccc(F)c(Cl)c3)ncnc2cc1O[C@H]1CCOC1 [Afatinib] | 82.8 |
| C=C1C[C@@H]2[C@H](CC[C@]3(C)C(=O)CC[C@@H]23)[C@@]2(C)C=CC(=O)C=C12 [Exemestane] | 103 |
| CN(C)c1cc(NC(=O)CNC(C)(C)C)c(O)c2c1C[C@H]1C[C@H]3[C@H](N(C)C)C(O)=C(C(N)=O)C(=O)[C@@]3(O)C(O)=C1C2=O [Tigecycline] | 112 |
| CN1C(=O)C(Cc2c[nH]c3ccccc23)NC1=S (stereo unspecified) [Necrostatin1] | 82.9 |
| COc1cc(-n2c(=S)[nH]c3ccccc3c2=O)c(Cl)cc1Cl [Mdivi1] | 83.6 |
| CC[C@H](C)C(=O)O[C@H]1C[C@@H](C)C=C2C=C[C@H](C)[C@H](CC[C@@H]3C[C@@H](O)CC(=O)O3)[C@H]21 [Lovastatin] | 89.9 |
